System: DU-145 prostate
Test: NCI-60 one-dose screen, 48 h (100 = growth as untreated, 0 = no growth, -100 = all killed)
Conditions: 10 µM unless noted
Compounds without any hit were thinned out: in the full panel of roughly 83,000, 20% have a hit.
Kindly state growth for each of the entries shown.
One number for each entry, in %.

Before answering, review these 4 worked examples.
# compound, growth [%]
measured = [
    ("CNC(=O)c1cc(-c2ccc(NC(=O)Nc3ccc(N4CCOCC4)c(C(F)(F)F)c3)cc2)nc2cccnc12", 69.6),
    ("C=C1CC[C@H]2[C@@](C)(CCC3OC(c4ccc(OCc5cn(C6CC(OC(C)=O)C(OC(C)=O)C(COC(C)=O)O6)nn5)cc4)OC[C@]32C)[C@@H]1/C=C/C1=CCOC1=O (stereo partly drawn)", 90),
    ("c1ccc2c(NCCCn3ccnc3)c3oc4ccccc4c3nc2c1", -17.2),
    ("N#Cc1c(-c2ccc(Cl)cc2)nc(SCc2ccc([N+](=O)[O-])cc2)nc1N1CCNCC1", 0.384),
]

Look at each compound and report its growth.
1. COc1ccc(NC2=C(Cl)C(=O)C(C)=C(C)C2=O)cc1OC
2. N[C@@H](Cc1cn(-c2c3ccccc3nc3ccccc23)nn1)C(=O)O

1: 104; 2: 105

* * *

Kindly state growth for each of the entries shown.
Test system: NCI-H226 lung
Experiment: NCI-60 one-dose screen, 48 h (100 = growth as untreated, 0 = no growth, -100 = all killed)
Conditions: 10 µM unless noted
About 83,000 compounds went through this panel and 20% of them were active in at least one assay; those are over-represented in the sample as a whole. Active and inactive are the calls of the source. Rule for the calls: active = growth percent below 10; inactive = the rest.

Before answering, review these 5 worked examples.
# molecule, growth
measured = [
    ("Nc1cc(-c2c[nH]c3ccccc23)nc2cc(-c3c[nH]c4ccccc34)nn12", "67.3% (inactive)"),
    ("N#Cc1c(-c2ccc(Cl)cc2)nc2c(-c3ccccc3)c(Nc3ccccc3)nn2c1N", "41.5% (inactive)"),
    ("CCOc1ccc2nc(NC(=O)c3ccc(C(F)(F)F)cc3)sc2c1", "107% (inactive)"),
    ("C#Cc1nc(C2=C(C)C(OC(C)=O)/C(=N/OC(C)=O)C2)cs1 (stereo not given)", "96.1% (inactive)"),
    ("Nc1nc(N)c2c(n1)NC(c1ccc(F)cc1)CC(c1ccc(Nc3nc(NCCO)nc(Nc4ccc(Cl)cc4)n3)cc1)=N2 (stereo not given)", "22.2% (inactive)"),
]

Look at each molecule and report its growth.
1. N#Cc1c(-c2ccc(Cl)cc2)nc(SCc2ccc([N+](=O)[O-])cc2)nc1N1CCNCC1
2. COc1cc(/C=C/C(=O)c2ccc(C(F)(F)F)cc2)ccc1Oc1nc(NCCO)nc(N2CCOCC2)n1
3. O=C(N/N=C/c1ccc(Cl)s1)c1[nH]c2ccc(Br)cc2c1-c1ccccc1
4. CCCC(=O)NC(c1cccnc1)c1cc(C)c2cccnc2c1O (stereo not given)
5. COc1ccc(NC(=O)c2sc3nc(-c4cnccn4)cc(-c4cccs4)c3c2N)cc1
6. COc1ccc(-c2nc3ccc(-c4nnc(SCC(=O)Nc5ccc(C(C)=O)cc5)o4)cc3[nH]2)cc1

85.2% (inactive)
89.2% (inactive)
55.9% (inactive)
52.6% (inactive)
35.5% (inactive)
100% (inactive)

Look at each molecule and report its growth.
1. COc1ccc(-c2nc3ccc(-c4nnc(SCC(=O)Nc5ccc(C(=O)/C=C/c6ccccc6)cc5)o4)cc3[nH]2)cc1OC
2. CC(=O)Oc1ccccc1C(=O)Nc1ccc(C(=O)/C=C/c2ccncc2)cc1

1. 98.2% (inactive)
2. 92.5% (inactive)

Look at each molecule and report its growth.
1. Cc1cc2nc3c4cc(Cl)ccc4n(CC(=O)NCCN(C)C)c3nc2cc1C
2. Cc1cccc(/C=C/c2nn3c(-c4ccco4)nnc3s2)c1

["25.7% (inactive)", "96.5% (inactive)"]

* * *

Test system: SK-OV-3 ovarian
Assay: NCI-60 one-dose screen, 48 h (100 = growth as untreated, 0 = no growth, -100 = all killed)
Conditions: 10 µM unless noted
This is part of a sample that, as a whole, favours compounds with a hit. Of some 83,000 tested, about 20% had one in any assay.
Threshold check on growth: strictly below 90% is true; on or above 90% is false.

# compound, testedOn, answerLabel
records = [
    ("CN1C(=S)N(C)C2C1NN=C1SC(c3ccccc3)=CC(=O)N12 (stereo unspecified)", "SK-OV-3 ovarian", "false"),
    ("CCCC(=O)NC(c1ccc2c(c1)OC(F)(F)O2)c1cc(C)c2cccnc2c1O (stereo unspecified)", "SK-OV-3 ovarian", "true"),
    ("COc1cccc(OC)c1-c1nnn(C)c1C(=S)N1CCN(c2ccc([N+](=O)[O-])cc2Cl)CC1", "SK-OV-3 ovarian", "false"),
]

Below 90% on growth? Entry O=C(CSc1nccc(=O)[nH]1)Nc1ccc(-c2nc3ccccc3[nH]2)cc1
false

Below 90% on growth? Entry CN(C)CCCNc1c2ccc(Cl)cc2nc2c1oc1ccccc12
true

Below 90% on growth? Entry Cc1ccc(-c2nc(C(Cl)Cl)nc3cc(-c4ccccc4)nn23)cc1
true

Below 90% on growth? Entry Cc1cccc2sc(/N=C(\N)C(Cl)(Cl)Cl)nc12
false

Below 90% on growth? Entry Clc1ccc2c(NCCCn3ccnc3)c3oc4ccc(Cl)cc4c3nc2c1
true

Below 90% on growth? Entry Cc1sc2c(c1C)c(=O)nc1c(-c3nc(-c4ccc(F)cc4)no3)n[nH]n12
false

Below 90% on growth? Entry CC(C)(C)Nc1nc2c(OCCc3ccccc3)cccn2c1-c1cccc(F)c1
true

Below 90% on growth? Entry Clc1ccc(-c2cn3cc(Cc4ccc(Cl)c(Cl)c4)sc3n2)cc1
false

Below 90% on growth? Entry COc1ccc(-c2nn3c(-c4ccccc4F)nnc3s2)cc1
true

Below 90% on growth? Entry c1ccc(CNc2ncnc3ccc(-c4cnc5[nH]ncc5c4)cc23)cc1
true

Below 90% on growth? Entry CS(=O)(=O)c1ccc(-c2nc3ccccn3c2/C=N/Nc2nc(-c3ccc(Cl)cc3)cs2)cc1
false

* * *

Test system: HCT-15 colon
Assay: NCI-60 one-dose screen, 48 h (100 = growth as untreated, 0 = no growth, -100 = all killed)
Conditions: 10 µM unless noted
About 83,000 compounds went through this panel and 20% of them were active in at least one assay; those are over-represented in the sample as a whole.
readoutLabel: growth (%)
Answers are plain numbers, in %.

Before answering, review these 3 worked examples.
# compound, unitsText, growth
rows = [
    ("O=C(CCN1C(=O)/C(=C/c2ccccc2)SC1=S)N1CCOCC1", "%", 53.7),
    ("Cn1c(SCC(=O)c2cccs2)nc2ccccc2c1=O", "%", 91.1),
    ("Cn1ccnc1C(=O)/C=C/c1ccc(NC(=O)Nc2ccc(Cl)cc2)cc1", "%", 47.1),
]

Look at each compound and report its growth.
1. C=C1CC[C@H]2[C@@](C)(CCC3OC(c4ccc(OCc5cn(C6CC(OC(C)=O)C(OC(C)=O)C(COC(C)=O)O6)nn5)cc4)OC[C@]32C)[C@@H]1/C=C/C1=CCOC1=O (stereo not given in full)
2. CN1CCc2c(sc3ncnc(N/N=C/c4ccc(Cl)c(Cl)c4)c23)C1
3. CCCC(=O)NC(c1ccc2c(c1)OC(F)(F)O2)c1cc(C)c2cccnc2c1O (stereo not given)

[77.2, 3.04, 39.3]

* * *

System: IGROV1 ovarian
Experiment: NCI-60 one-dose screen, 48 h (100 = growth as untreated, 0 = no growth, -100 = all killed)
Settings: 10 µM unless noted
Compounds without any hit were thinned out: in the full panel of roughly 83,000, 20% have a hit. The source made the active and inactive calls. The calls were made as follows: active = growth percent below 10; inactive = the rest.
Kindly state growth for each of the entries shown.

Before answering, review these 3 worked examples.
# compound, growth
records = [
    ("O=C(CCN1C(=O)/C(=C/c2ccccc2)SC1=S)N1CCOCC1", "88.5% (inactive)"),
    ("COC1CCN(Cc2ccc3c(NNC(=O)c4cnccn4)nc4cc(F)ccc4n23)C1 (stereo unspecified)", "24.2% (inactive)"),
    ("O=C(CSc1nnc(-c2ccc3nc(-c4ccc(Cl)cc4)[nH]c3c2)o1)Nc1ccc(C(=O)/C=C/c2ccc(Cl)cc2)cc1", "85.5% (inactive)"),
]

Look at each compound and report its growth.
1. COc1ccccc1/C=C/C=N/NC1=NC2C(S1)N(C)C(=O)N2C (stereo unspecified)
2. COc1ccc(Cc2nn(CC(=O)N/N=C/c3ccc(Cl)cc3)c(=O)c3c(C)noc23)cc1
3. Cc1nc(-c2cc3ccccc3oc2=O)ccc1C(=O)/C=C/c1ccccn1
4. CN(C)CCCNc1c2ccc(Cl)cc2nc2c1oc1ccc(Cl)cc12
5. Clc1ccc2c(NCCCn3ccnc3)c3oc4ccc(Cl)cc4c3nc2c1

1: 46% (inactive); 2: 82.1% (inactive); 3: 7% (active); 4: -64.3% (active); 5: 58.9% (inactive)

Look at each compound and report its growth.
1. O=C(CN1C(=O)/C(=C/c2ccccc2)SC1=S)N1CCOCC1
2. O=C(N/N=C/c1ccco1)c1[nH]c2ccc(Br)cc2c1-c1ccccc1
3. O=C1NC(=C(Cl)Cl)/C(=N/S(=O)(=O)N2CCCCC2CC2(C(F)(F)F)N=N2)N1 (stereo unspecified)
4. COc1cccc(N2CCN(c3ncnc4c3[nH]c3ccc(F)cc34)C[C@@H]2C)c1
5. CCN1CCN(S(=O)(=O)c2oc(-c3ccc(Cl)cc3)nc2C#N)CC1

1. 97.4% (inactive)
2. 18.5% (inactive)
3. -0.053% (active)
4. -30.2% (active)
5. 7.89% (active)

Look at each compound and report its growth.
1. c1ccc2c(NCCCn3ccnc3)c3oc4ccccc4c3nc2c1
2. CCOC(=O)c1c(NC(=O)c2cccc(C(F)(F)F)c2)sc2cc(O)ccc12
3. N#Cc1c(-c2ccc(Cl)cc2)nc(SCc2ccc([N+](=O)[O-])cc2)nc1N1CCNCC1

["-6.93% (active)", "75.7% (inactive)", "-1.76% (active)"]

The values you see were collected from PubChem BioAssay (NCI).
